# target.under.test: human enzyme NAMPT (full length) (Homo sapiens)
# Construct: human enzyme NAMPT (full length)
# Sequence (P43490 whole entry): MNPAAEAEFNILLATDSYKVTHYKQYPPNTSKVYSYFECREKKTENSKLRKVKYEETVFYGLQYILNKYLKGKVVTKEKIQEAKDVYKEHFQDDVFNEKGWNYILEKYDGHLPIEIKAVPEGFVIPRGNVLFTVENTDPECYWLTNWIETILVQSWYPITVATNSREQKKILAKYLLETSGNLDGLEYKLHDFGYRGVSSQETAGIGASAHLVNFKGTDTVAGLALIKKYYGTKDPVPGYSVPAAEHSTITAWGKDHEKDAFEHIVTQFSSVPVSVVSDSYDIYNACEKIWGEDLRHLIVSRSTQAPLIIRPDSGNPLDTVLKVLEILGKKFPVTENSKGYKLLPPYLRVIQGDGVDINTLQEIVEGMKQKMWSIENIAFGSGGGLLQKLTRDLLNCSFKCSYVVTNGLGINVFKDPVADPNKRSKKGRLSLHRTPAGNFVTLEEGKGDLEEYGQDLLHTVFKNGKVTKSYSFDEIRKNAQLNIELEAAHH
# experimental.details: NMN fluorescence biochemical assay (stimulation of NMN synthesis by NAMPT)
# condition.parameters: fold change of maximal activation compared to DMSO
readout.type: Enzymatic Emax

Recorded Enzymatic Emax, per entry:
molecule	Enzymatic Emax
Cc1nn(C)c(CC2c3ccccc3C(=O)N2Cc2ccc3[nH]nnc3c2)c1Cl (centres unmarked)	A (A>3)
COc1ncc(CN2C(=O)c3ccccc3C2Cc2c(Cl)cnn2C)s1 (centres unmarked)	B (3≥B>2)
COc1ccc(CN2C(=O)c3ccc(OC(F)F)cc3C2Cc2c(Cl)cnn2C)cn1 (centres unmarked)	A (A>3)
N#CCn1cc(Cl)c(CC2c3ccccc3C(=O)N2Cc2ccc3[nH]nnc3c2)n1 (centres unmarked)	B (3≥B>2)
O=C1c2ccccc2C(Cc2ccc(F)cn2)N1Cc1ccc2[nH]c(=O)oc2c1 (centres unmarked)	B (3≥B>2)
CC1c2cc(CN3CCCC3)ccc2C(=O)N1Cc1ccc2[nH]c(=O)oc2c1 (centres unmarked)	A (A>3)

Let's switch to this molecule now.
Sure, the documented Enzymatic Emax for Cn1ncc(Cl)c1C[C@H]1c2ccccc2C(=O)N1C[C@H]1C[C@]2(CNC(=O)O2)C1 is B (3≥B>2)

====

EC50: recorded values
# Test system: endogenous NAMPT in U2OS cells
# experimental.details: Cellular NAD+ modulation assay (NAD/NADH-Glo, U2OS cells)
# Type: cell-based
# condition.parameters: Homo sapiens, 24 hours incubation, cellular NAD+
# Method: Certain compounds described herein were also assayed for their ability to stimulate the endogenous NAMPT in a native cellular environment in a cellular NAD^+ modulation assay. […] Luminescence was recorded using a luminometer. The potency measurements for the test compounds were quantified and represented as EC50 (concentration of a compound that gives half-maximal activation) and Emax (fold change of a compound's maximal activation compared to DMSO).

molecule	target.under.test	val
COc1ccc(CN2C(=O)c3ccccc3C2Cc2c(Cl)ccn(C)c2=O)cn1 (centres unmarked)	endogenous NAMPT in U2OS cells	500 to 5000 nM
Cn1ncc(Cl)c1CC1c2ccccc2C(=O)N1C[C@@H]1C[C@@H]1c1c[nH]nn1 (relative stereo)	endogenous NAMPT in U2OS cells	5000 to 50000 nM
Cn1nc(Cl)c(CC2c3ccccc3C(=O)N2Cc2ccc3[nH]nnc3c2)n1 (centres unmarked)	endogenous NAMPT in U2OS cells	< 500 nM

Let's switch to this molecule now.
Sure, the documented EC50 for Cn1ncc(Cl)c1CC1c2cc(C(F)F)ccc2C(=O)N1Cc1ccc2[nH]nnc2c1 (centres unmarked) is < 500 nM

====

# Tested on: endogenous NAMPT in U2OS cells
# experimental.details: Cellular NAD+ modulation assay (NAD/NADH-Glo, U2OS cells)
# Assay type: cell-based
# condition.parameters: Homo sapiens, 24 hours incubation, cellular NAD+
pEC50: −log10 of the molar value.
readout.type: pEC50

Recorded pEC50, per entry:
molecule	pEC50
Cn1ncc(Cl)c1CC1c2c(Cl)cccc2C(=O)N1Cc1ccc2[nH]nnc2c1 (centres unmarked)	5.30 to 6.30
Cn1ncc(Cl)c1CC1c2ccccc2C(=O)N1Cc1ccc2c(c1)nnn2C (centres unmarked)	> 6.30
Cc1nn(C)c(CC2c3ccccc3C(=O)N2CC2CC3(CNC(=O)O3)C2)c1Cl (centres unmarked)	> 6.30
Cn1ncc(Cl)c1CC1c2cc(OC(F)F)ccc2C(=O)N1CC1CC2(CNC(=O)O2)C1 (centres unmarked)	> 6.30

Sure, the documented pEC50 for COc1ccc(CN2C(=O)c3cnccc3C2Cc2c(C)ccnc2C#N)cc1 (centres unmarked) is 5.30 to 6.30

Sure, the documented pEC50 for Cn1ncc(Cl)c1CC1c2ccccc2C(C)(C)N1Cc1ccc2[nH]c(=O)oc2c1 (centres unmarked) is 5.30 to 6.30

Sure, the documented pEC50 for Cc1n[nH]cc1C#CCN1C(=O)c2ccccc2C1Cc1c(Cl)cnn1C (centres unmarked) is 5.30 to 6.30

Sure, the documented pEC50 for CNCc1ccc2c(c1)C(=O)N(Cc1ccc3[nH]nnc3c1)C2Cc1c(Cl)cnn1C (centres unmarked) is 4.30 to 5.30
